# assay system: ZFP SBS#1270 (synthetic)
# Sequence (chain, as listed by the source): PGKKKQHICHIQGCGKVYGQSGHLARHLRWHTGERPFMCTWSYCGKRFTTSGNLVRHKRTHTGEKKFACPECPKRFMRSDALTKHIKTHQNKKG
# procedure text: EMSA
# condition: tags: MBP fusion
observation type: pKd
In simple prose, pKd is minus the logarithm base ten of a concentration in moles per litre.

Tell me the measured pKd of TTGGATGGA (dsDNA) DNA 1: TTGGATGGA DNA 2: TCCATCCAA , please.
9.40
